Target: T1, human chemokine (C-C motif) receptor 8 (CCR8) (human, UniProt P51685 1-355)
T1 construct: also called hCCR8
T1 sequence (P51685 whole entry): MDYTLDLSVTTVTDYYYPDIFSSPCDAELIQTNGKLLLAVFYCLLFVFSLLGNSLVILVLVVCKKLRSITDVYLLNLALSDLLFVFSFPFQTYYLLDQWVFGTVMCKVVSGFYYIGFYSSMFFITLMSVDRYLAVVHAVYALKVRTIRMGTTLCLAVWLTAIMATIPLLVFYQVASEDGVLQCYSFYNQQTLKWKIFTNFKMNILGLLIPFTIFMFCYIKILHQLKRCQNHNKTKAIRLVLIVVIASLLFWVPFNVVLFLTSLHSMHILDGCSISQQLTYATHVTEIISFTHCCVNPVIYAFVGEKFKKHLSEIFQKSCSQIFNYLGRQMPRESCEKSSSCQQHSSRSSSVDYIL
Assay: flow cytometry blocking, human PBMC, CD3+ gate; % cells stained by competitor PE-AB6 after block
assay-readout: % Positive cells (%)
Kindly provide the numeric value in % only, without the unit symbol.

anti-CCR8 monoclonal antibody AB6 (antibody, V domains shown, also called antibody 6; clone 6) VH: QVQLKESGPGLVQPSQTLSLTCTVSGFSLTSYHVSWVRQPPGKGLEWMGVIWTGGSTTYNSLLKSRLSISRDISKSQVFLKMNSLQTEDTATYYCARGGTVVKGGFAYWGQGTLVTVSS VL: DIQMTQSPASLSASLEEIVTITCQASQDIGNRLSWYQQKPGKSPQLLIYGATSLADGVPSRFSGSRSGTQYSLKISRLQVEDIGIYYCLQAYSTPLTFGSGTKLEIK = 7.25
anti-CCR8 monoclonal antibody AB11 (antibody, V domains shown, Hybridoma monoclonal; also called antibody 11; clone 11) VH: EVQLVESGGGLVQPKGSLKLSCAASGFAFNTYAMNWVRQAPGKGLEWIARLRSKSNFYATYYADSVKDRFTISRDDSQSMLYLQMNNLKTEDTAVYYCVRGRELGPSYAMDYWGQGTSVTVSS VL: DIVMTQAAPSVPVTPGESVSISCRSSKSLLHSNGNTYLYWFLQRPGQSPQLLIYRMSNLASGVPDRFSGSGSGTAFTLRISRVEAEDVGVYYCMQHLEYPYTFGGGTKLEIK = 8.04
anti-CCR8 monoclonal antibody AB13 (antibody, V domains shown, Hybridoma monoclonal; also called antibody 13; clone 13) VH: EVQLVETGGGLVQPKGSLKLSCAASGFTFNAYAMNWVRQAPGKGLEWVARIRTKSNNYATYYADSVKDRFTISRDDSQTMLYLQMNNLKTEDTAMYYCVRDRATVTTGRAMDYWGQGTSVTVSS VL: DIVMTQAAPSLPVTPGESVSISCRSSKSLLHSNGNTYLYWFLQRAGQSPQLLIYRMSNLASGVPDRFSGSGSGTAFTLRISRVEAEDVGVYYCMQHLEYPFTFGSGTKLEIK = 8.62

Param item = anti-CCR8 monoclonal antibody AB5 (antibody, V domains shown, Hybridoma monoclonal; also called antibody 5; clone 5) VH: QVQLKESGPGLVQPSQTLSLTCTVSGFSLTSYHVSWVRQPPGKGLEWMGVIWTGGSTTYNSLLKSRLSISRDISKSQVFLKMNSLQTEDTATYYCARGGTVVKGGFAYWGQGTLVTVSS VL: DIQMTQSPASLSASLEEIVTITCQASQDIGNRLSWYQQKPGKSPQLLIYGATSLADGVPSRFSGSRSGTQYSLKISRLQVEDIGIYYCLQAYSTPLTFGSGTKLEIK ; retrieve measured % Positive cells.
0.32
